The entries below come with measured EC50 (M), T cell mediated MOLM-13 cell killing, human primary T cells, E:T 10:1 values attached.
Target: T1, Human T cell receptor on human primary T cells (human, UniProt P01848 1-140; P01850 1-176)
T1 TCR alpha (looked up): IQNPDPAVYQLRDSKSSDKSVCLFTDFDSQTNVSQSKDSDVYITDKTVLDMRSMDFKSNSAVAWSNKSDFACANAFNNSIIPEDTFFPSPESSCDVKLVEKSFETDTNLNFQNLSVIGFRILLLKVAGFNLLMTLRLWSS
T1 TCR beta (looked up): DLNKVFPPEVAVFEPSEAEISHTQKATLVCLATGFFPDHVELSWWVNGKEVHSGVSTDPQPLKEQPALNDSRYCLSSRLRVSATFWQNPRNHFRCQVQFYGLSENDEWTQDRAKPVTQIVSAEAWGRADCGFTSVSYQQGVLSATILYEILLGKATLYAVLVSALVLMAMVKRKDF
Assay: cell-based or functional assay
Output spec: scalar in M, unitless text.

Worked examples follow.
# BINDER, REPORTED MEASUREMENT
data = [
    ("T017000640 (bispecific antibody, also called A0110056A10(E1D)-35GS-T0170056G05(L11V, G26W, L34Y, G35T, M77T, K83R, V89L, F91Y, F95L, Y99W)-A) DVQLVESGGGLVQAGGSLRLSCAASGITSKINDMGWYRQTPGNYREWVASITATGTTNYRDSVKGRFTISRDNAKSTVYLQMNSLKPEDTTVYYCNTFPPISNFWGQGTLVTVSSGGGGSGGGGSGGGGSGGGGSGGGGSGGGGSGGGGSEVQLVESGGGVVQPGGSLRLSCVASWDVHKINFYTWYRQAPGKEREKVAHISIGDQTDYADSAKGRFTISRDESKNTVYLQMNSLRPEDTALYYCRALSRIWPYDYWGQGTLVTVSSA", "5.7e-10"),
    ("T017000636 (bispecific antibody) DVQLVESGGGVVQPGGSLRLSCVASWDVHQINFYGWYRQAPGKEREKVAHISIGDQTDYADSAKGRFTISRDESKNTVYLQMNSLRPEDTALYYCRALSRIWPYDYWGQGTLVTVSSGGGGSGGGGSGGGGSGGGGSGGGGSGGGGSGGGGSEVQLVESGGGLVQAGGSLRLSCAASGITSKINDMGWYRQTPGNYREWVASITATGTTNYRDSVKGRFTISRDNAKSTVYLQMNSLKPEDTTVYYCNTFPPISNFWGQGTLVTVSSA", "6.6e-11"),
    ("T017000128 (bispecific antibody) DVQLVESGGGLVQPGGSLRLSCVASGDVHKINFLGWYRQAPGKEREKVAHISIGDQTDYADSAKGRFTISRDESKNMVYLQMNSLKPEDTAVYFCRAFSRIYPYDYWGQGTLVTVSSGGGGSGGGGSGGGGSGGGGSGGGGSGGGGSGGGGSEVQLVESGGGLVQAGGSLRLSCAASGITSKINDMGWYRQTPGNYREWVASITATGTTNYRDSVKGRFTISRDNAKSTVYLQMNSLKPEDTTVYYCNTFPPISNFWGQGTLVTVSSA", "2.3e-10"),
    ("T017000639 (bispecific antibody) DVQLVESGGGVVQPGGSLRLSCVASWDVHKINFYTWYRQAPGKEREKVAHISIGDQTDYADSAKGRFTISRDESKNTVYLQMNSLRPEDTALYYCRALSRIWPYDYWGQGTLVTVSSGGGGSGGGGSGGGGSGGGGSGGGGSGGGGSGGGGSEVQLVESGGGLVQAGGSLRLSCAASGITSKINDMGWYRQTPGNYREWVASITATGTTNYRDSVKGRFTISRDNAKSTVYLQMNSLKPEDTTVYYCNTFPPISNFWGQGTLVTVSSA", "3.6e-11"),
    ("T017000628 (bispecific antibody) DVQLVESGGGVVQPGGSLRLSCVASYDVHKINFYGWYRQAPGKEREKVAHISIGDQTDYADSAKGRFTISRDESKNTVYLQMNSLRPEDTALYYCRALSKIWPYDYWGQGTLVTVSSGGGGSGGGGSGGGGSGGGGSGGGGSGGGGSGGGGSEVQLVESGGGLVQAGGSLRLSCAASGITSKINDMGWYRQTPGNYREWVASITATGTTNYRDSVKGRFTISRDNAKSTVYLQMNSLKPEDTTVYYCNTFPPISNFWGQGTLVTVSSA", "1.6e-10"),
]

Exercise: Reported EC50 (M), T cell mediated MOLM-13 cell killing, human primary T cells, E:T 10:1, binder T017000627 (bispecific antibody) DVQLVESGGGVVQPGGSLRLSCVASWDVHKINFYGWYRQAPGKEREKVAHISIGDQTDYADSAKGRFTISRDESKNTVYLQMNSLRPEDTALYYCRALSKIWPYDYWGQGTLVTVSSGGGGSGGGGSGGGGSGGGGSGGGGSGGGGSGGGGSEVQLVESGGGLVQAGGSLRLSCAASGITSKINDMGWYRQTPGNYREWVASITATGTTNYRDSVKGRFTISRDNAKSTVYLQMNSLKPEDTTVYYCNTFPPISNFWGQGTLVTVSSA : ____
Key: 2.4e-10

Exercise: Consider the binder T017000633 (bispecific antibody) DVQLVESGGGVVQPGGSLRLSCVASGYVHKINFYGWYRQAPGKEREKVAHISIGDQTDYADSAKGRFTISRDESKNTVYLQMNSLRPEDTALYYCRALSRIWPYDYWGQGTLVTVSSGGGGSGGGGSGGGGSGGGGSGGGGSGGGGSGGGGSEVQLVESGGGLVQAGGSLRLSCAASGITSKINDMGWYRQTPGNYREWVASITATGTTNYRDSVKGRFTISRDNAKSTVYLQMNSLKPEDTTVYYCNTFPPISNFWGQGTLVTVSSA and give its measured EC50 (M), T cell mediated MOLM-13 cell killing, human primary T cells, E:T 10:1.
Key: 1.2e-10

Values from patent US20240092919A1
